Values compiled from paper PMC8839189.

As shown below, each of these molecules has a reported ABTS•+-Scavenging Activity, TEAC value.
Assay: ABTS radical cation scavenging activity assay
Conditions: Trolox equivalent antioxidant capacity, 1 h incubation

{"columns": ["Test smiles", "ABTS•+-Scavenging Activity, TEAC"],
 "data": [
  ["S=C(NCCCCCCNC(=S)Nc1c2c(nc3c1CCC3)CCCC2)Nc1c2c(nc3c1CCC3)CCCC2", 1.5],
  ["O=C(CNCCNCC(=O)Nc1c2c(nc3c1CCC3)CCCC2)Nc1c2c(nc3c1CCC3)CCCC2", 0.10],
  ["S=C(NCCCCNC(=S)Nc1c2c(nc3c1CCC3)CCCC2)Nc1c2c(nc3c1CCC3)CCCC2", 1.8]
]}
